# System Under Test: T1, ZO-1 PDZ2 (human, UniProt Q07157 184-264)
# T1 construct: second PDZ domain of human ZO-1 (TJP1), residues 184-264, numbering of the full-length human protein; […]; Labelled on amines with RED-NHS dye for MST; also called TJP1 PDZ2; ZO-1-2
# T1 sequence (looked up): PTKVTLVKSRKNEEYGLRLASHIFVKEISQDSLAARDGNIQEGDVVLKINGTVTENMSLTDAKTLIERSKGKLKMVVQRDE
# Method Description: MST; […]; PBS tween 20 0.05%; room temperature; […]; duplicate
# Measurement Parameters: both partners purified
Property: Kd (µM)
Note: unit µM is implicit; provide only the numeric part.

Q: Which value of Kd has been reported for NLNSSRVPDLLV (also called SARS-CoV-2 WT; SARS-CoV-2 peptide E) [C-terminal SARS-CoV-2-E PBM peptide] in the records?
A: 15
